# inhibition values compiled below
Test system: Misshapen-like kinase 1 (Homo sapiens) (UniProt Q8N4C8);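 note: mean inhibition value reported, from GSK PKIS kinase profiling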
Sequence (Q8N4C8 whole entry, looked up): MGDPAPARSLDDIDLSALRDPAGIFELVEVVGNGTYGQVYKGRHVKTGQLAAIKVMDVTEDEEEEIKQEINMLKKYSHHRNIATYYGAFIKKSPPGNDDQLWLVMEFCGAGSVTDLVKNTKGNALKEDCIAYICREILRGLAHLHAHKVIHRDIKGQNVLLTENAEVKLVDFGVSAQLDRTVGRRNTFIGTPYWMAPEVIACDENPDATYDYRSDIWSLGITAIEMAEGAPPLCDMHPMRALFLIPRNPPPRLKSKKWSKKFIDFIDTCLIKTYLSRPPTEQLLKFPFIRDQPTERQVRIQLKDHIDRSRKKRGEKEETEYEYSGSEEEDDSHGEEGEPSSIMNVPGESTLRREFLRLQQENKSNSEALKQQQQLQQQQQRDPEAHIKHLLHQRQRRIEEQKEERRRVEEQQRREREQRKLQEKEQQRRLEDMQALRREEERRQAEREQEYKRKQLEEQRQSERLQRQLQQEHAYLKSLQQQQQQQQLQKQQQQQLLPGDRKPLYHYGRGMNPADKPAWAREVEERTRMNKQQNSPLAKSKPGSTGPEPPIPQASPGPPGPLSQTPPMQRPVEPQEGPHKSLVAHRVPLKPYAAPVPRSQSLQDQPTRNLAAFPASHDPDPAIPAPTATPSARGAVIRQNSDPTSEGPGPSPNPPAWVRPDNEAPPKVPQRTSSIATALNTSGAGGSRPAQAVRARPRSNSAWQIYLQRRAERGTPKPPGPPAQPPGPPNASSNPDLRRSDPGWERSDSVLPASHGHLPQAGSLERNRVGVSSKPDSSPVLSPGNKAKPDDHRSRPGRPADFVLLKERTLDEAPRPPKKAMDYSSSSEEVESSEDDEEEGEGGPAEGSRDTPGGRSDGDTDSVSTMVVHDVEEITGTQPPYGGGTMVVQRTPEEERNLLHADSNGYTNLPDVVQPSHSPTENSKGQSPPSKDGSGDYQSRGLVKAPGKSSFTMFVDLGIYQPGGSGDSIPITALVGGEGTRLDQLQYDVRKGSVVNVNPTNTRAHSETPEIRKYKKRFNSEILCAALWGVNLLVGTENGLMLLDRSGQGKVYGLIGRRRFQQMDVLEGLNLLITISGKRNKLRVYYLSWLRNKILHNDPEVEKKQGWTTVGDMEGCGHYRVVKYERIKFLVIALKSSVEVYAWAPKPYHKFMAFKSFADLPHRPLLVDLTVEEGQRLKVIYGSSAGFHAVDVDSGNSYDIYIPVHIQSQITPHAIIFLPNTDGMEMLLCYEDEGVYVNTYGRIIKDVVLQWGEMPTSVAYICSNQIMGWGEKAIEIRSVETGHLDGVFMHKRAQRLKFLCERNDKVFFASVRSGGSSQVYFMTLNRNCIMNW
Run parameters: at 0.1 µM
Your answer should be a plain number; it is taken to be in %.

In the examples that follow, each entry is paired with its recorded inhibition.
NC(=O)c1cccc(Nc2nccc(Nc3cccc4[nH]ncc34)n2)c1 ... 0.64
Cc1cccc(-c2n[nH]cc2-c2ccc3ncccc3n2)n1 ... 4.05
COc1cccc(-n2ncc3c(N/N=C/c4cccc(F)c4)ncnc32)c1 ... 7.28
Nc1nc(-c2ccccn2)c(-c2ccc3ncccc3n2)s1 ... 5.37

Lab note: "CCc1cccc(NC(=O)Nc2ccc(Oc3ccc4nc(NC(=O)OC)[nH]c4c3)cc2)c1" gave inhibition of 3.46

Lab note: "O=C1NC(=O)C(c2ccccc2Cl)=C1Nc1cccc(O)c1" gave inhibition of 3.8

Lab note: "COc1cc2ncn(-c3cc(O[C@H](C)c4ccccc4Cl)c(C(N)=O)s3)c2cc1OC" gave inhibition of 5.71

Lab note: "COc1cc(C=NNc2ncnc3c2cnn3-c2ccccc2)ccc1O" gave inhibition of 24

Lab note: "CCn1c(-c2nonc2N)nc2c(N3CCCC3)nccc21" gave inhibition of 0.71

Lab note: "O=C1NC(=O)C(c2ccc(Cl)cc2)=C1Nc1ccc(Cl)c(C(=O)O)c1" gave inhibition of -0.82

###

Test system: Tyrosine-protein kinase Mer (Homo sapiens);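 note: values are mean inhibition of human MER kinase, from the GSK PKIS profiling panel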
Run parameters: at 1 µM
Metric: inhibition (%)
Your answer should be a plain number; it is taken to be in %.

In the examples that follow, each entry is paired with its recorded inhibition.
CN(C)c1cc2c(Nc3ccc4nc(Cc5ccccc5)[nH]c4c3)ncnc2cn1 ... 8.97
O=C1NC(=O)C(N2CCc3ccccc32)=C1c1ccc(Cl)cc1 ... 6.47
CC(C)=Cc1cccc2c1/C(=N/Nc1ccc(S(N)(=O)=O)cc1)C(=O)N2 ... 3.48
CCn1c(-c2nonc2N)nc2cnc(Oc3cccc(NC(=O)c4ccc(OCCN5CCOCC5)cc4)c3)cc21 ... 2.56
COc1ccc(-c2coc3ncnc(N)c23)cc1 ... 2.9

Now, please, on to the next molecule.
Here "Cc1ccc(C(=O)NC2CCCCC2)cc1-c1ccc(C(=O)NCC2CC2)cc1" was tested on Tyrosine-protein kinase Mer (Homo sapiens), and its inhibition came to 3.6

###

Test system: Maternal embryonic leucine zipper kinase (Homo sapiens);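 note: each value is the mean inhibition of MELK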
Run parameters: at 1 µM
Metric: inhibition (%)
Your answer should be a plain number; it is taken to be in %.

COc1cc(C=NNc2ncnc3c2cnn3-c2ccccc2)ccc1O ... 43.8
CC(C)=Cc1cccc2c1/C(=N/Nc1ccc(S(N)(=O)=O)cc1)C(=O)N2 ... 25.6

Now, please, on to the next molecule.
Here "CS(=O)(=O)CCN(CC#N)Cc1ccc(-c2ccc3ncnc(Nc4ccc(OCc5cccc(F)c5)c(Cl)c4)c3c2)o1" was tested on Maternal embryonic leucine zipper kinase (Homo sapiens), and its inhibition came to 8.4

###

Test system: Serine/threonine-protein kinase Sgk2 (Homo sapiens) (UniProt Q9HBY8);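 note: each value is a mean percent inhibition of SGK2 from the GSK PKIS kinase screen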
Sequence (whole entry): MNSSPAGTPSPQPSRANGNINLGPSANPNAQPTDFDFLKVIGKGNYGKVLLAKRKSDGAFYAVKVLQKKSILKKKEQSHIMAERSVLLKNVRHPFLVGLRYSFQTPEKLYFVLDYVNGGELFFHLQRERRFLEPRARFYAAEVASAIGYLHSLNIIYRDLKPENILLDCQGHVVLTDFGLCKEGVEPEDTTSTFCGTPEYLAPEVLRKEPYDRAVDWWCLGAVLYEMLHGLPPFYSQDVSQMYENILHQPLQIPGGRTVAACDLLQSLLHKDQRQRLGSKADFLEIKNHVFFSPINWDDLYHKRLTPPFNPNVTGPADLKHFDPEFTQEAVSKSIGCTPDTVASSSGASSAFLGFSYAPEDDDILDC
Run parameters: at 0.1 µM
# inhibition values compiled below
Your answer should be a plain number; it is taken to be in %.

In the examples that follow, each entry is paired with its recorded inhibition.
COc1cc2ncn(-c3cc(OCc4ccccc4C(F)(F)F)c(C(N)=O)s3)c2cc1OC ... 6.11
c1cnn2ncc(-c3ccnc(Nc4ccc5c(c4)OCCO5)n3)c2c1 ... 6.82
COc1cc2ncn(-c3cc(O[C@@H](C)c4ccccc4Cl)c(C(N)=O)s3)c2cc1OC ... 4.32

Now, please, on to the next compound.
Lab note: "COc1cc2ncn(-c3cc(O[C@H](C)c4ccccc4Cl)c(C(N)=O)s3)c2cc1OC" gave inhibition of 2.67
